molecular target: Factor X (FX), P00742
Sequence (P00742 whole entry, looked up): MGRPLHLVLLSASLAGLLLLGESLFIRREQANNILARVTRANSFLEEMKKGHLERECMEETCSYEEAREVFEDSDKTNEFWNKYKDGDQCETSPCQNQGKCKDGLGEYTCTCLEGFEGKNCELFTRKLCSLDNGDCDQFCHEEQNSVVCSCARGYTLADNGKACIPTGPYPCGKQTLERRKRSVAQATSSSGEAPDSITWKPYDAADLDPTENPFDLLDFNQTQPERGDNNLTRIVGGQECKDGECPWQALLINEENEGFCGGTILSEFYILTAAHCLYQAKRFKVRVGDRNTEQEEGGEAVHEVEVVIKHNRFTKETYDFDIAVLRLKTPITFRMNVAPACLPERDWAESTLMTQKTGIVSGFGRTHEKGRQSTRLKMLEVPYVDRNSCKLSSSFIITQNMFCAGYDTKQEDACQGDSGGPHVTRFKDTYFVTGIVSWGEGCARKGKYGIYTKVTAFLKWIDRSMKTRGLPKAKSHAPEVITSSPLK
test-readout: KM (FX activation by FIXa in the Xase complex with FVIIIa, PC/PS vesicles and Ca2+) (µM)

protein: FIXa D104N/K106S/K228N/K247N/N249S/R318Y/R338E/R403E/E410N (protein) chain 1: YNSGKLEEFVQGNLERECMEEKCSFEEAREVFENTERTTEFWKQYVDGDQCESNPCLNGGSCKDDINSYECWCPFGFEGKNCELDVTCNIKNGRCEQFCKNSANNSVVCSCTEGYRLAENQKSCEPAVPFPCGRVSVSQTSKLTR chain 2: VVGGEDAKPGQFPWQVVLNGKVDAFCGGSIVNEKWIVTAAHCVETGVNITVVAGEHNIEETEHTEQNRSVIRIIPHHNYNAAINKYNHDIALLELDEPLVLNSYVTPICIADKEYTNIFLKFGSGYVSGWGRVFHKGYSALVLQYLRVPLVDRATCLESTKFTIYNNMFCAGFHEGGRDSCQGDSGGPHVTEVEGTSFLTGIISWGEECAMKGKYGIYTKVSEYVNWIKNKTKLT
result-value: 0.0533
//
protein: FIXa K228N/R318Y/R338E/R403E/E410N (protein) chain 1: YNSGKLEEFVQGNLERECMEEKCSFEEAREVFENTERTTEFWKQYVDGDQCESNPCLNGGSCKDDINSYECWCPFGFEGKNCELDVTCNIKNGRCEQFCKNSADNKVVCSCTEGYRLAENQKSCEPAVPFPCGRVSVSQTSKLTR chain 2: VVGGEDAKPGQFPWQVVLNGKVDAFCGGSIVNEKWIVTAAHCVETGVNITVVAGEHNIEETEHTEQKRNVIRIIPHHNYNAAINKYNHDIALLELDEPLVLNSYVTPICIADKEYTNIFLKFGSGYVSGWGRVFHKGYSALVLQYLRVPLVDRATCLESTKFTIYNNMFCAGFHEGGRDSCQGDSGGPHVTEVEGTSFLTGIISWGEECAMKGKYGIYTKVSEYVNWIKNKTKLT
result-value: 0.0361
//
protein: FIXa D85N/K228N/R318Y/R338E/R403E/E410N (protein) chain 1: YNSGKLEEFVQGNLERECMEEKCSFEEAREVFENTERTTEFWKQYVDGDQCESNPCLNGGSCKDDINSYECWCPFGFEGKNCELNVTCNIKNGRCEQFCKNSADNKVVCSCTEGYRLAENQKSCEPAVPFPCGRVSVSQTSKLTR chain 2: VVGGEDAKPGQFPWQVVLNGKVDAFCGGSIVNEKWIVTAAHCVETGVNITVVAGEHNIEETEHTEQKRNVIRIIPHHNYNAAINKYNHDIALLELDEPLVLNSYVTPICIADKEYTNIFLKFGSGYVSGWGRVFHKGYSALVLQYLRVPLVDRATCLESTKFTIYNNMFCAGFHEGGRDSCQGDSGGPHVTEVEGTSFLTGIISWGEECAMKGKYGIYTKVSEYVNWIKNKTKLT
result-value: 0.0393
//
protein: FIXa D104N/K106S/I251S/R318Y/R338E/E410N (protein) chain 1: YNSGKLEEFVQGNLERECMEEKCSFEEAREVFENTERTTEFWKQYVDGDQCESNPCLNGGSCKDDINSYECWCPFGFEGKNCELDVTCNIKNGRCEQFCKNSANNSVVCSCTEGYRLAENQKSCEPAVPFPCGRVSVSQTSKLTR chain 2: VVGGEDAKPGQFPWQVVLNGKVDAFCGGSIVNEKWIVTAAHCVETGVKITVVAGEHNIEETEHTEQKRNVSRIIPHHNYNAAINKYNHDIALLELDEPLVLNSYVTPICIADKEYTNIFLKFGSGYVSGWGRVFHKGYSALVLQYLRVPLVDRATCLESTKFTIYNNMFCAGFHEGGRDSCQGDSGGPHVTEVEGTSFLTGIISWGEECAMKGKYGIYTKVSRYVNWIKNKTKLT
result-value: 0.0243
